Values were extracted from paper PMC5540273.

Please respond with reported %Inh for every item in the list.
system: PIK3C2B; conditions: concentration: 1 μM, replicates: in singlicate; n = 1
# output: numeric value plus its unit

Would you please give the reported %Inh of CCn1c(-c2nonc2N)nc2c(C#CC(C)(C)O)ncc(OCCCCN)c21.O=C(O)C(F)(F)F.O=C(O)C(F)(F)F with PIK3C2B?
0%

Retrieve %Inh on PIK3C2B; query COc1ccc(Nc2nccc(N3CCC(NC(=O)Nc4cccc(OC)c4)C3)n2)cc1 (stereo not drawn)
13%

Lab note: PIK3C2B assay, enter %Inh for CCS(=O)(=O)c1ccc(OC)c(Nc2nccc(-c3c(-c4cccc(NC(=O)c5c(F)cccc5F)c4)nn4ncccc34)n2)c1 here
0%

Return reported %Inh for target or system PIK3C2B, item CN1CCN(Cc2cccc(-c3ccc4c(Nc5ccc(Oc6ccccc6)cc5)ccnc4c3)c2)CC1 .
0%

Look up and report measured %Inh (PIK3C2B) for the following molecule: CC(=O)N1CCN(c2ccc(Nc3nccc(-c4sc(C(C)C)nc4-c4cccc(NS(=O)(=O)c5cccc(Cl)c5)c4)n3)cn2)CC1
0%

Write down measured %Inh (PIK3C2B) for this molecule. CNC(=O)c1ccccc1Nc1nc(Nc2ccc(N3CCOCC3)cc2)ncc1Cl.Cl
17%

Report %Inh on PIK3C2B for this entry: Nc1ncc(-c2cccnc2)c2scc(-c3ccc4c(c3)CCN4C(=O)Cc3ccccc3)c12
0%

Provide %Inh, system PIK3C2B, entry COC(=O)Nc1nc2cc(Oc3ccc(NC(=O)Nc4cc(C(F)(F)F)ccc4F)cn3)ccc2[nH]1.Cl.Cl
0%

Give %Inh; test system PIK3C2B; molecule Clc1ccc(-c2nn3ncccc3c2-c2ccnc(Nc3ccc4c(c3)OCCO4)n2)cc1
0%

Write %Inh of c1ccc(Oc2ccc(Nc3ccnc4cc(-c5ccc(CNCCN6CCOCC6)o5)ccc34)cc2)nc1 ; system used: PIK3C2B
0%

Recall the reported %Inh of CN(c1ccc(NC(=O)Nc2cc(C(F)(F)F)ccc2F)cc1)c1ccnc(Nc2ccc(S(N)(=O)=O)cc2)n1 on PIK3C2B and write it down.
29%

Report %Inh under test system PIK3C2B for C[C@@H]1CC[C@@H](C(=O)Nc2ccccc2)CN1c1cc(-c2ccc3c(N)n[nH]c3c2)nc(N)n1 .
0%

Provide the reported %Inh (system: PIK3C2B) for Cn1cc(-c2ccc3c(c2)CCN3C(=O)Cc2cccc(Cl)c2)c2c(N)ncnc21
89%

State %Inh on PIK3C2B. Entry: COc1cc(Nc2nccc(N3CCC(NC(=O)Nc4cccc(C(C)=O)c4)C3)n2)cc(OC)c1OC (stereo not drawn)
0%

Param request: %Inh | system PIK3C2B | item Cc1ccc(C(=O)Nc2ccc(Nc3ccnc4cc(-c5nccs5)ccc34)cc2O)cc1.Cl;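 further: KINOMEscan kinase panel screen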
0%
